- Target or system: Multidrug resistance-associated protein 1 (Homo sapiens, UniProt P33527)
- Sequence (P33527 whole entry): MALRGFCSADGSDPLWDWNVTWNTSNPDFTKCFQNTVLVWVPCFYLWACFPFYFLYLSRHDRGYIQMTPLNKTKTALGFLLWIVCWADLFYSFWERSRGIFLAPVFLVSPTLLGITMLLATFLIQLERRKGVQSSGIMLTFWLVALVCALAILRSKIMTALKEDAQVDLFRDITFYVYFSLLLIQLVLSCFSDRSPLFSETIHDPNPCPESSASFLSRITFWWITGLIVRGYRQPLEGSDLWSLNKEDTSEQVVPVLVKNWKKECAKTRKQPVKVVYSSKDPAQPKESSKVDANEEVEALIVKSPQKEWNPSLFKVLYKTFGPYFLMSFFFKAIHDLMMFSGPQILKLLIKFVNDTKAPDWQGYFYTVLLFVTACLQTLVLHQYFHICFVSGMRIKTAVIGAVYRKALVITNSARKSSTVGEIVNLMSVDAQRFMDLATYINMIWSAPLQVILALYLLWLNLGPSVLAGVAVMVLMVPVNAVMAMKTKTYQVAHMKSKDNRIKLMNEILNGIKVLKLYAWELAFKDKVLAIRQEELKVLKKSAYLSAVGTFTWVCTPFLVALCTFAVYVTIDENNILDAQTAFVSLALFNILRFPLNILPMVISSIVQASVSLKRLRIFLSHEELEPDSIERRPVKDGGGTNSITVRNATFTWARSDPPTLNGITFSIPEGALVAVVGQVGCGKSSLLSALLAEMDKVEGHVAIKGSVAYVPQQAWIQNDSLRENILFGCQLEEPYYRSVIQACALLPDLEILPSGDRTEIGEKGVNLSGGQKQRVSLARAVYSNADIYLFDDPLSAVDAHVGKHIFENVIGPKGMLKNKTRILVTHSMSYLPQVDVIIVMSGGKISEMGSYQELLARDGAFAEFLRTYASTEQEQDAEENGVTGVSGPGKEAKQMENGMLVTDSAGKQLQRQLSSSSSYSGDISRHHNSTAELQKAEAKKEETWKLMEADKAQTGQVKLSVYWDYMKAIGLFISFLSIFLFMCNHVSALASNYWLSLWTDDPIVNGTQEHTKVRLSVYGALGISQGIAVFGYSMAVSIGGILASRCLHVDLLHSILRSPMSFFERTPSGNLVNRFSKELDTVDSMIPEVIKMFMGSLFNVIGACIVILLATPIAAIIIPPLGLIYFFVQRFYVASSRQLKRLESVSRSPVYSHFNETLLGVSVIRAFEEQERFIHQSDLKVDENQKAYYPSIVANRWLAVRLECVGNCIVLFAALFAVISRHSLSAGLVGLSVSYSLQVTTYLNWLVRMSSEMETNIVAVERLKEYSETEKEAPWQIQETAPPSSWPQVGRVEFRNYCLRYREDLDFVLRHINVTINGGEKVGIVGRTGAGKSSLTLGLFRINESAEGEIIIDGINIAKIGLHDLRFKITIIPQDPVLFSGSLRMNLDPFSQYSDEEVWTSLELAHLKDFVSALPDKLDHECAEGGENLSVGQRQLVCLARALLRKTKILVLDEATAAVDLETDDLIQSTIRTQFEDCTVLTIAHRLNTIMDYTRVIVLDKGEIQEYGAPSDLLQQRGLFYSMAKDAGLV
- Assay text: Inhibition of MRP1 in human H69AR cells incubated for 20 mins measured […] by calcein-AM accumulation assay
- Assay type: cell-based
Below, each of the compounds is paired with its reported IC50 value.
The response must be a number in nM with no trailing unit.

Smiles string	Assay result
N#Cc1c2n(c3c(N4CCN(CCc5ccccc5)CC4)ncnc13)CCCCC2	833
N#Cc1c2n(c3c(N4CCN(C(c5ccccc5)c5ccccc5)CC4)ncnc13)CCCCC2	1950

Let's switch to this compound now.
Data request: Using the record for `N#Cc1c2n(c3c(N4CCN(c5ccccc5)CC4)ncnc13)CCCCC2` , state its measured IC50.
Data returned: 8980
